Examples of binders with documented RAMPO Score follow.
- target.of.assay: T1, His-tagged P3028 peptide (PGE73) (human)
- T1 construct: albumin-derived peptide, in solution at 0.5 ug/mL; not shown: His-tag
- T1 peptide: VFDEFKPLVEEPQNLIK
- test.details: PEPSCAN ELISA, peptide on card
Number only, please.

Consider the following illustrative entries.
- binder: "KKLDTFFVKLSLITER [SEQ ID NO: 365 KKLDTFFVKLSLITER]"
  measured.property: "RAMPO Score"
  assay.value: 468
- binder: "KKLWTFFVKLSLFTER [SEQ ID NO: 302 KKLWTFFVKLSLFTER]"
  measured.property: "RAMPO Score"
  assay.value: 443
- binder: "KKLDTFFVKLSLCTER [SEQ ID NO: 362 KKLDTFFVKLSLCTER]"
  measured.property: "RAMPO Score"
  assay.value: 400
- binder: "KKLDTFFVKLSLFTDR [SEQ ID NO: 387 KKLDTFFVKLSLFTDR]"
  measured.property: "RAMPO Score"
  assay.value: 404
- binder: "KKLDTFFVKLSLPTER [SEQ ID NO: 369 KKLDTFFVKLSLPTER]"
  measured.property: "RAMPO Score"
  assay.value: 696

Reported RAMPO Score for KKLDTFFVKLSSFTER [SEQ ID NO: 357 KKLDTFFVKLSSFTER] : what is it?
478

And the next one, KKSDTFFVKLSLFTER [SEQ ID NO: 295 KKSDTFFVKLSLFTER] ?
393

Also need TKLDTFFVKLSLFTER [SEQ ID NO: 280 TKLDTFFVKLSLFTER] , thanks.
493

Entry to check: KKLDTFFVKTSLFTER [SEQ ID NO: 342 KKLDTFFVKTSLFTER]
399

Same question, KKLDPFFVKLSLFTER [SEQ ID NO: 307 KKLDPFFVKLSLFTER] this time
427

Again, but for KKLYTFFVKLSLFTER [SEQ ID NO: 303 KKLYTFFVKLSLFTER]
422

And for KKLDTFFVKNSLFTER [SEQ ID NO: 337 KKLDTFFVKNSLFTER] ?
365

Moving on to the next binder: KKLDTFFFKLSLFTER [SEQ ID NO: 326 KKLDTFFFKLSLFTER]
358

Param item: KKDDTFFVKLSLFTER [SEQ ID NO: 284 KKDDTFFVKLSLFTER]
492

Moving on to KKLDTFFVRLSLFTER [SEQ ID NO: 331 KKLDTFFVRLSLFTER]
374

Please answer likewise for KKLDTFFVKLSLFMER [SEQ ID NO: 381 KKLDTFFVKLSLFMER]
501

Follow-up entry: KKKDTFFVKLSLFTER [SEQ ID NO: 290 KKKDTFFVKLSLFTER]
386

Next binder: EKLDTFFVKLSLFTER [SEQ ID NO: 270 EKLDTFFVKLSLFTER]
396
